# measured-on: Claudin 18.2 (CLDN18.2), expressed on CHOS-CLDN 18.2 / HEK293-CLDN 18.2 / HCC827-CLDN 18.2 cells (human, UniProt P56856-2 1-261)
# measurement-protocol: cell-based or functional assay
metric-name: Killing percentage, ADCC (PBMC, HEK293-CLDN18.2 cells), 0.32 µg/ml (%)

binder	observed-result
QP024025 (antibody, human IgG1, V domains shown, also called IMAB362; 175D10(IMAB362)) VH: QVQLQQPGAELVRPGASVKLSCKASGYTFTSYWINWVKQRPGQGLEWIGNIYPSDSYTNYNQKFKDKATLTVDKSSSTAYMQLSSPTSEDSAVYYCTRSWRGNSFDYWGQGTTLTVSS VL: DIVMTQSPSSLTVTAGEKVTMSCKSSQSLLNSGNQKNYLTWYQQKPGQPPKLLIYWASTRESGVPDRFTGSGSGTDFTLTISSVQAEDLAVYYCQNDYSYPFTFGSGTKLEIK	28.2
QP14371433 (antibody, human IgG1, kappa, V domains shown, Humanized from QP190191; also called QP14331437) VH: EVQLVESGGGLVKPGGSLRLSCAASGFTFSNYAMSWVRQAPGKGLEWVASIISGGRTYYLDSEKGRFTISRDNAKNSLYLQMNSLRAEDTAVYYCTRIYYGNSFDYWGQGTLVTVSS VL: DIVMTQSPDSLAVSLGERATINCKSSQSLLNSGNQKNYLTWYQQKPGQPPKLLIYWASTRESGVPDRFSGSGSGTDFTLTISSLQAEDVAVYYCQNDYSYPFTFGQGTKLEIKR	49.6
QP14451440 (antibody, human IgG1, kappa, V domains shown, Humanized from QP192193; also called QP14401445) VH: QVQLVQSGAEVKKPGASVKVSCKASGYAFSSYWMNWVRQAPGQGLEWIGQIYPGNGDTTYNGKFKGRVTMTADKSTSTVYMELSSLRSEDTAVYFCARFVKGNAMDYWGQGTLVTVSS VL: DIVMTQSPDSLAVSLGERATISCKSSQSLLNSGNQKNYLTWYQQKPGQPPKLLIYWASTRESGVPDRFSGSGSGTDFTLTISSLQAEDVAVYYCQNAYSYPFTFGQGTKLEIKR	43.7
QP14631461 (antibody, human IgG1, kappa, V domains shown, also called QP14611463) VH: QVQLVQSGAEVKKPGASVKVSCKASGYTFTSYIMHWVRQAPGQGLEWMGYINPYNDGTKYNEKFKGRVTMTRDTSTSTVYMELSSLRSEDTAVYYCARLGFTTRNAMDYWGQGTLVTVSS VL: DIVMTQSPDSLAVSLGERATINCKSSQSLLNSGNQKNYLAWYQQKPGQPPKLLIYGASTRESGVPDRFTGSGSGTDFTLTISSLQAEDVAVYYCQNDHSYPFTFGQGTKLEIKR	43.8

Hey, just so you know, these numbers are from patent US20230183352A1.
